Tested on: Nucleic Acid
Measurement description: B app constant towards DNA
Assay type: nucleic-acid assay
Measurement conditions: Bos taurus
Classify as follows. Reported Bapp greater than or equal to 0.1: Met. Reported Bapp below: Not met.

Previously resolved entries follow.
Query string: # check: Bapp of COc1ccc2[nH]c3c(C)c4ccnc(NCCCN(C)C)c4cc3c2c1 is greater than or equal to 0.1
Result string: Not met

Query string: Answer whether Bapp of COc1ccc2[nH]c3c(C)c4ccnc(NCCN(C)C)c4cc3c2c1 is greater than or equal to 0.1.
Result string: Met

Query string: Given the entry COc1ccc2[nH]c3c(C)c4ccnc(NCCCCN)c4cc3c2c1 , answer whether its Bapp meets or surpasses 0.1.
Result string: Met

Query string: Assess whether reported Bapp for CCN(CC)CCCNc1nccc2c(C)c3[nH]c4ccc(O)cc4c3cc12 sits at 0.1 or higher.
Result string: Met

Query string: In plain terms: is recorded Bapp at least 0.1 for CCN(CC)CCCNc1nccc2c(C)c3[nH]c4ccc(O)cc4c3c(C)c12 ?
Result string: Met

***
Query string: Textbook exercise: given the entry COc1ccc2[nH]c3c(C)c4ccnc(NCCN)c4cc3c2c1 , state whether its Bapp is greater than or equal to 0.1.
Result string: Met

Query string: In plain terms: is recorded Bapp at least 0.1 for COc1ccc2[nH]c3c(C)c4ccnc(NCCCCCN)c4cc3c2c1 ?
Result string: Met

Query string: Can COc1ccc2[nH]c3c(C)c4ccnc(NCCCCCCN)c4cc3c2c1 be said to have Bapp at or above 0.1?
Result string: Met

Query string: Is Bapp for COc1ccc2[nH]c3c(C)c4ccnc(NCCCN)c4cc3c2c1 at or above 0.1?
Result string: Not met

Query string: Does the compound CCN(CC)CCCNc1nccc2c(C)c3[nH]c4ccc(OC)cc4c3c(C)c12 [RETELLIPTINE] have recorded Bapp that is 0.1 or more?
Result string: Met

* * *

Let's look at some compounds and their measured LD0.
Test system: Mus musculus
Measurement description: In vivo acute toxicity (nonlethal dose) against mice by intraperitoneal administration
Type: organism-based
Measurement conditions: ip
Give a bare numeral; the unit mg/kg is implied.

Query string: Can you look up the measured LD0 of CCN(CC)CCCNc1nccc2c(C)c3[nH]c4ccc(OC)cc4c3c(C)c12 [RETELLIPTINE] for me?
Result string: 15

Others:
Query string: What value of measured LD0 is listed for COc1ccc2[nH]c3c(C)c4ccnc(NCCN)c4cc3c2c1 ?
Result string: 5

Query string: Item under review: CCN(CC)CCCNc1nccc2c(C)c3[nH]c4ccc(OC)cc4c3cc12 . Reported LD0?
Result string: 15

Query string: What does the data say about its LD0? Entry: COc1ccc2[nH]c3c(C)c4ccnc(NCCCN5CCN(CCCN)CC5)c4cc3c2c1
Result string: 25

Query string: LD0 for CCN(CC)CCCNc1nccc2c(C)c3[nH]c4ccc(O)cc4c3cc12 ?
Result string: 5

Query string: Item under review: Cc1c2ccnc(NCCN(C)C)c2cc2c1[nH]c1ccc(O)cc12 . Reported LD0?
Result string: 2.5

* * *

Tested on: Nucleic Acid
Measurement description: Apparent association constant towards DNA at concentration of 10e-7/M
Assay type: nucleic-acid assay
Measurement conditions: Bos taurus
Metric: K app (M⁻¹)
Unit M⁻¹ implied. Number only.

Below are worked cases with known answers.
Query string: Any idea what K app came out for CCN(CC)CCCNc1nccc2c(C)c3[nH]c4ccc(O)cc4c3c(C)c12 on Nucleic Acid?
Result string: 2e+07

Query string: Hello, I am looking for reported K app with Nucleic Acid for COc1ccc2[nH]c3c(C)c4ccnc(NCCN(C)C)c4cc3c2c1 . Could you help?
Result string: 2.8e+07

Query string: Hello, I am looking for reported K app with Nucleic Acid for COc1ccc2[nH]c3c(C)c4ccnc(NCCN)c4cc3c2c1 . Could you help?
Result string: 3.3e+07

Continue with the next compound.
Query string: So what K app did CCN(CC)CCCNc1nccc2c(C)c3[nH]c4ccc(OC)cc4c3c(C)c12 get with Nucleic Acid?
Result string: 3.15e+07
